test: folding enthalpy; higher = less favourable; fluorescence melt of hairpins on a sequencing array, two-state fit; conditions: sodium 0.088 M
The reader will find reported folding enthalpy values listed item by item below.
Assay Metric: folding enthalpy (kcal/mol)

>>> print(df.to_string())
                                    chain      assay_metric  measurement
 0  GTCCTCGAAAGAGCAGAC ((((((....)))..)))  folding enthalpy        -19.8
 1    GGCAACCGAAAGGTGCC (((.(((....))))))  folding enthalpy        -33.6
 2  GATCGCGAAAGCGGAATC ((((((....)))..)))  folding enthalpy        -10.9
 3  GGCGGCGAAAGCCTAGCC ((((((....)))..)))  folding enthalpy        -21.3
 4      GATCCGGGAGCGGATC ((((((....))))))  folding enthalpy        -37.4
 5              GCGACATGTCGC ((((....))))  folding enthalpy          -37
 6  GCGATCGAAAGATATCGC ((((((....)))..)))  folding enthalpy        -29.2
 7  GCCGTGGGAAACCATGGC (((.(((....))).)))  folding enthalpy        -43.5
 8  GGTTCGGGAAACTGAGCC ((.((.(....).)).))  folding enthalpy        -27.1
 9  GGGAAGACGAAAGTCCCC (((..(((....))))))  folding enthalpy        -19.1
10  GTCTATGGAAACACAGAC ((((.((....)).))))  folding enthalpy          -21
11      GATCGCAGGCGCGATC ((((((....))))))  folding enthalpy        -35.1
